organism: Mus musculus; test: Binding affinity to prostanoid receptor in [8-14C]adenine-treated CD-1 mouse ovary assessed as increase in c-AMP production at 25 ug/ml after 30 mins by paper chromatographic analysis in presence of phosphodiesterase inhibitor theophylline relative to control; type: tissue-based; details: Female gonad
Measured property: fold change (FC)

[a] CS(=O)(=O)C(CCCCCCC(=O)O)CCCC(O)COc1ccc(F)cc1 (stereo not given)
[b] CCCCCC(O)CCCC(CCCCCCC(=O)O)SC (mixture of isomers)
[c] CCCCCC(O)CCCC(CCCCCCC(=O)O)C(C)=O (stereo not given)
Problem: Quick favor: sort the compounds up above by fold change (FC), largest first. Write out the labels following the order that was asked for.
Result: b, a, c

[A] CCCCCC(O)CCCC(CCCCCCC(=O)O)[S+](C)[O-] (mixture of isomers)
[B] CCCCCC(O)CCCC(CCCCCCC(=O)O)S(C)(=O)=O (mixture of isomers)
Problem: Short answer wanted: higher fold change (FC), A or B ? Answer by stating the label of the chosen item.
Result: A

----------
organism: Mus musculus; test: Binding affinity to prostanoid receptor in [8-14C]adenine-treated CD-1 mouse ovary assessed as increase in c-AMP production at 25 ug/ml after 30 mins by paper chromatographic analysis in presence of phosphodiesterase inhibitor theophylline relative to control; assay type: tissue-based; conditions: Female gonad
Measured property: fold change (FC)

[A] CCCCC[C@H](O)CC[C@H]1CCC(=O)[C@@H]1CCCCCCC(=O)O
[B] CCCCCC(O)CCCC(CCCCCCC(=O)O)SCCO (mixture of isomers)
[C] CCCCCC(O)CCCC(CCCCCCC(=O)O)S(=O)(=O)CCO (mixture of isomers)
[D] CCCCCC(O)CCCCCS(=O)(=O)CCCCCCCC(=O)O (racemic)
Problem: Task for the reader: rank each entry by its fold change (FC), from the minimum upward. Please list the labels according to the requested order.
Result: D, C, B, A
(D: 0.5, C: 2, B: 4, A: 26)

----------
species on record: Mus musculus; test: Binding affinity to prostanoid receptor in [8-14C]adenine-treated CD-1 mouse ovary assessed as increase in c-AMP production at 100 ug/ml after 30 mins by paper chromatographic analysis in presence of phosphodiesterase inhibitor theophylline relative to control; type: tissue-based; conditions: Female gonad
Measured property: fold change (FC)

CCCCCC(O)CCCC(CCCCCCC(=O)O)SC (mixture of isomers) :: 24

[A] CCCCCC(O)CCCC(CCCCCCC(=O)O)[S+](C)[O-] (mixture of isomers)
[B] CCCCCC(O)CCCC(CCCCCCC(=O)O)S(=O)(=O)CCO (mixture of isomers)
Problem: Looking only at measured fold change (FC), which entry is lower, A or B ? Answer = label.
Result: B

----------
species on record: Mus musculus; experiment: Binding affinity to prostanoid receptor in [8-14C]adenine-treated CD-1 mouse ovary assessed as increase in c-AMP production at 1 ug/ml after 30 mins by paper chromatographic analysis in presence of phosphodiesterase inhibitor theophylline relative to control; assay type: tissue-based; settings: Female gonad
Measured property: fold change (FC)

Below: 5 compounds and their reported fold change (FC).
CCCCC[C@H](O)CC[C@H]1CCC(=O)[C@@H]1CCCCCCC(=O)O :: 10
CCCCCC(O)CCCC(CCCCCCC(=O)O)[S+](C)[O-] (mixture of isomers) :: 4
CCCCCC(O)CCCC(CCCCCCC(=O)O)C(C)=O (centres undefined) :: 2
CCCCCC(O)CCCC(CCCCCCC(=O)O)S(C)(=O)=O (mixture of isomers) :: 14
CS(=O)(=O)C(CCCCCCC(=O)O)CCCC(O)COc1ccc(F)cc1 (centres undefined) :: 1

[A] CCCCC[C@H](O)/C=C/[C@H]1[C@H](O)CC(=O)[C@@H]1CCCCCCC(=O)O [ALPROSTADIL]
[B] CCCCCC(O)CCCC(CCCCCCC(=O)O)SCCO (mixture of isomers)
[C] CCCCCC(O)CCCC(CCCCCCC(=O)O)S(=O)(=O)CCO (mixture of isomers)
[D] CCCCCC(O)CCCC(CCCCCCC(=O)O)SC (mixture of isomers)
Problem: Rank by fold change (FC) (largest to smallest). API: response body holds the labels in the requested order.
Result: A, D, B, C
(A: 54, D: 2.5, B: 1.5, C: 0.7)

Numbers sourced from ChEMBL document CHEMBL3243919.
